- Test system: HOP-92 NSCLC
- run description: NCI tumour cell line growth inhibition, 48 h; in the data active = GI50 below about 0.43 µM; inactive = the rest
One label from this list, please: 1.0 = active, 0.0 = inactive

Here are 5 molecules together with their reported answers.
# molecule, group label
records = [
    ("CCc1ccc2cc3c(ccc4ccccc43)c3c2c1CC3", 0.0),
    ("Nc1nc(N)c2nc(CNc3ccc(C(=O)NC(CCC(=O)O)C(=O)O)cc3)cnc2n1 (centres undefined)", 0.0),
    ("CCOc1ccc(-c2nc3ccc(-c4nc5ccc(N6CCN(C)CC6)cc5[nH]4)cc3[nH]2)cc1OCC", 0.0),
    ("C=C(CN1CCc2ccccc2C1)c1ccc(C(=O)Nc2cccc(N)c2)cc1", 0.0),
    ("Cc1ccc(CNc2ccc(Cl)cc2NCc2ccc(C)c(O)c2)cc1O", 0.0),
]

Prompt: Name the outcome recorded for `CCC[CH2][Sn]1([CH2]CCC)[O]C(=O)c2cccnc2[S]1` in the assay.
Response: 0.0

Prompt: Name the outcome recorded for `CCN(CC)c1ccc(C=C2C(=O)NC(=S)NC2=O)cc1` in the assay.
Response: 0.0

Prompt: Name the outcome recorded for CC(=O)Nc1ccc(S(=O)(=O)N2C(=O)CCC2C(=O)Nc2ccccc2)cc1 (centres undefined) in the assay.
Response: 0.0

Prompt: Name the outcome recorded for OC1(c2ccccc2)c2ccccc2N(c2ccccc2)c2ccc(Cl)cc21 (centres undefined) in the assay.
Response: 1.0

Prompt: Name the outcome recorded for `CN1CC[C@H](N(C)C(=O)N2CC(c3cc(F)ccc3F)=C[C@@]2(CO)c2ccccc2)[C@H](F)C1` in the assay.
Response: 1.0

* * *

- Test system: TK-10 renal
- run description: NCI tumour cell line growth inhibition, 48 h
metric: TGI

# compound, metric, reported measurement
measured = [
    ("C=CN(C(=O)N1CCN(c2cc3c(cc2F)c(=O)c(C(=O)O)cn3C2CC2)CC1)c1nc(-c2ccc(C)cc2)cs1", "TGI", "> 100 µM"),
]

For this compound ( CC1=C(C(N)=O)C(c2ccncc2)C(C#N)C(=O)N1 (stereo unspecified) ), measured TGI is > 100 µM

For this compound ( `CN(C)CCC(C#N)(c1ccccc1)c1ccccc1` ), measured TGI is > 100 µM

For this compound ( C=CC(C)(C)[C@@]12CC3C(=O)N[C@@H](Cc4ccccc4)C(=O)N3[C@@H]1N(C(C)=O)c1ccccc12 (stereo partly specified) ), measured TGI is > 100 µM

* * *

- Tested on: OVCAR-3 ovarian
- run description: NCI tumour cell line growth inhibition, 48 h
Where a SMILES comes first, the peptide text is derived from it. The star is where a group is joined. Boc = CC(C)(C)OC(=O)*; OtBu = CC(C)(C)O*
metric: TGI

# molecule, reported measurement
measured = [
    ("COc1cc(/C=C(\\C#N)C(=O)c2ccccc2)cc(OC)c1OC", "> 100 µM"),
    ("CC(=O)Nc1ccc(/C=C/C(=O)c2sc(-n3nc(-c4ccccc4)cc3-c3ccccc3)nc2C)cc1", "> 100 µM"),
    ("N#Cc1nc(CCC(C(=O)O)N2C(=O)c3ccccc3C2=O)oc1N (stereo not given)", "> 100 µM"),
    ("COC(=O)[C@@H](N1C(=O)c2ccccc2C1=O)C1(C)CC(Cl)=NO1 (stereo not given in full)", "> 100 µM"),
]

Turning now to a further record.
Record CC(C)(C)OC(=O)CC(NC(=O)OC(C)(C)C)C(=O)NC(Cc1ccccc1)C(N)=O (stereo not given) (Boc-Asp(OtBu)-Phe-NH2; configuration not given here) / OVCAR-3 ovarian, TGI recorded as > 100 µM
